System: A549/ATCC NSCLC
Experiment: NCI-60 one-dose screen, 48 h (100 = growth as untreated, 0 = no growth, -100 = all killed)
Conditions: 10 µM unless noted
About 83,000 compounds went through this panel and 20% of them were active in at least one assay; those are over-represented in the sample as a whole.
// label = Yes if growth is not less than 70%, otherwise No

Before answering, review these 6 worked examples.
CCCN1C=C/C(=C\C(=O)n2ccc3ccccc32)c2ccccc21; Yes
CCCCSC1=C(Cl)CN(c2ccccc2)C1=O; Yes
C#Cc1cc(C(=O)Nc2ccc(CNCCN3CCOCC3)c(C(F)(F)F)c2)ccc1C; Yes
Clc1cccc(/C=N/Nc2nc(N/N=C/c3cccc(Cl)c3)nc(N3CCOCC3)n2)c1; No
O=c1nc(Nc2ccc([N+](=O)[O-])cc2O)sc2ccccc12; No
CC[C@]12C=CCN3CC[C@@]4(c5ccc(OC)cc5N(C)[C@H]4[C@@](O)(C(=O)OC)[C@@H]1OC(=O)CCN1CCc4ccccc4C1)[C@@H]32; Yes

Let's switch to this compound now.
Does growth meet or surpass 70% for `COc1ccc(/C=N/NC(=O)CSc2nc(-c3cnccn3)cc(-c3cccs3)c2C#N)cc1OC` ? Yes

The measured values listed here are drawn from PubChem BioAssay (NCI).
